This collection of values is drawn from paper PMC12195615.

- method summary: Cytotoxicity assay (MTT), RAW 264.7
- run parameters: mouse, RAW 264.7 macrophage cells
measurement kind: CC50 at 48 h (µg/mL)

COc1cc(/C=C/C(=O)CC(=O)/C=C/c2ccc(O)c(OC)c2)ccc1O [compound 1, curcumin]	69.8
